Where do the numbers come from? From patent US20110105397A1.

# TESTED ON: T1, human corticotrophin releasing hormone receptor type 2 (CRHR2) (human, UniProt Q13324 1-411)
# T1 sequence (looked up): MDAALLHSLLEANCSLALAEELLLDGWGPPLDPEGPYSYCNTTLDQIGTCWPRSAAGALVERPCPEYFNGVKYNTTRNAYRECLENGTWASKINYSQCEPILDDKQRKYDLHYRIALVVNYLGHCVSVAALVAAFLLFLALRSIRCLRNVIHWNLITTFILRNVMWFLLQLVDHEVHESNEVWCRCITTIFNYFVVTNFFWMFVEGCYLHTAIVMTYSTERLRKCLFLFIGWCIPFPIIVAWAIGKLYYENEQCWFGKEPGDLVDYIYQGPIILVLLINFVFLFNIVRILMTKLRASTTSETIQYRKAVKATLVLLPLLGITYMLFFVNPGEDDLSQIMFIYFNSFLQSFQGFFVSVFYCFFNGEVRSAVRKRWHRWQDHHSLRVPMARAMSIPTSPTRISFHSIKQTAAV
# MEASUREMENT PROTOCOL: cell-based or functional assay
Where no end group is shown, it is not given here.
QUANTITY MEASURED: Log DR (log10)

- BINDER: "TKFTLSLDVPTNIMNLLFNIAKAKNLRAQAAANCHLMAQI (NES-PEG (about 20 kDa) on Cys 34; C-terminal amide (-NH2)) [Pegylated Cys-variant stresscopin-like peptide with NES linker and PEG about 20 kDa SEQ ID NO: 88]"
  MEASUREMENT UNITS: "log10"
  TEST VALUE: 1.55

[I] TKFTLSLDVPTNIMNLCFNIAKAKNLRAQAAANAHLMAQI-NH2 [Cys-variant stresscopin-like peptide SEQ ID NO: 18]
[II] TKFTLSLDVPTNIMNLLFNIAKAKNLRAQACANAHLMAQI-NH2 [Cys-variant stresscopin-like peptide SEQ ID NO: 32]
In: Identify the entry with the larger Log DR. Options: I and II Output the label that corresponds to your choice.
Out: I
